Target: T1, wild-type CCR1 expressed on HEK293 cells (human, UniProt P32246 1-355)
T1 sequence (looked up): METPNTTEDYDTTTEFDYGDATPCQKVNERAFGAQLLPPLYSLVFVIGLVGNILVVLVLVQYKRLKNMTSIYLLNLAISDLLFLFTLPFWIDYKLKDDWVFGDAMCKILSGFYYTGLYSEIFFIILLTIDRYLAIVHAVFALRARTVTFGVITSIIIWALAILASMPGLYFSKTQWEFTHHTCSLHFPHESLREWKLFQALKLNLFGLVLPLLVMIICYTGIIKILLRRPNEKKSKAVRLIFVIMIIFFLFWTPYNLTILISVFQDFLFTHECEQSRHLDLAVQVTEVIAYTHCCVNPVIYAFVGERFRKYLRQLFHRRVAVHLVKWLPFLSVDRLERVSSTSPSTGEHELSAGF
Assay: radioligand binding
measure.name: IC50 (nM)
Answers are plain numbers, in nM.

Req: Find the measured IC50 of wild-type CCL3 (ligand, UniProt P10147 24-92, looked up) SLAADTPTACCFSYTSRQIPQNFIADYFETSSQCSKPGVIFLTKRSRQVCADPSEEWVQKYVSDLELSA and report it.
Resp: 0.9

Cited source for all entries: paper PMC2706832
